// provenance: patent US7122550B2

- study system: Tel-Jak2 (Homo sapiens, UniProt O60674)
- Construct: The regions encompassing the kinase domains of JAK2 (nucleotides 2994–3914); TEL (ETV6, human P41212) N-terminal part encoded by nucleotides 1-487 of TEL; expressed in transfected cells; host or cells: BaF3 (murine) bearing pTET-off, transfected with pTELJAK2 (pTRE2 vector); the other entry of the earlier key: ETV6 (P41212, Transcription factor ETV6)
- Sequence (O60674 with tags, fused parts or gaps): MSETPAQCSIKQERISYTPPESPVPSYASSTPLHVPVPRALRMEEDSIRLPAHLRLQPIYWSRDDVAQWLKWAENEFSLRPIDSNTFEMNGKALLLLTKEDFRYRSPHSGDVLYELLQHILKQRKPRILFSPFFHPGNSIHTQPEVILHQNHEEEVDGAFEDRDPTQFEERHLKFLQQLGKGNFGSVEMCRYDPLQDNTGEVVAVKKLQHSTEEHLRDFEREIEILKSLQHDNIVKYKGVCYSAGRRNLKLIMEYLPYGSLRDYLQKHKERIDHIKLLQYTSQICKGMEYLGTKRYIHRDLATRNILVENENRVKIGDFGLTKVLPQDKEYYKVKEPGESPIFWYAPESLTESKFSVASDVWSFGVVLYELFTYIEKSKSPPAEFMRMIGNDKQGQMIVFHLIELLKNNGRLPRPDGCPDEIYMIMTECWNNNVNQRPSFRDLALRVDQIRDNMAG
- assay protocol: Cellular growth inhibition assay (MTT), Tel-Jak2 transformed BaF3 cell line
- Assay type: cell-based
- condition notes: 40 hr incubation, read-out: Jak2: growth inhibitory activity (>50%) in transformed cell line Tel-Jak2
measure name: inhibition at 50 µM

CNC(=O)c1ccc(C(C)Nc2cncc(-c3ccc(O)c(OC)c3)n2)cc1 (stereo not drawn): > 50%

Looking up COc1cc(-c2cncc(NC(C)c3ccc(-c4cccnc4)cc3)n2)ccc1O (stereo not drawn) , I found its inhibition at 50 µM recorded as > 50%

For record `COc1cc(-c2cncc(Nc3ccc(F)cc3C)n2)ccc1O` the listed inhibition at 50 µM is > 50%

The molecule identified as COc1cc(-c2cncc(NC(C)c3ccc(NC(=O)N4CCN(C)CC4)cc3)n2)ccc1O (stereo not drawn) registered its inhibition at 50 µM at > 50%

COc1cc(-c2cncc(NC(C)c3cccc(NC(=O)C4CCCN4)c3)n2)ccc1O (stereo not drawn) yielded inhibition at 50 µM of > 50%

According to the records, this molecule COc1cc(-c2cncc(NC(C)c3ccc(NC(=O)c4ccncc4)cc3)n2)ccc1O (stereo not drawn) displays inhibition at 50 µM of > 50%

====

- study system: Tel-Jak3 (Homo sapiens, UniProt P52333)
- Construct: TEL (ETV6, human P41212) N-terminal part encoded by nucleotides 1-487 of TEL; expressed in transfected cells; host or cells: BaF3 (murine) bearing pTET-off, transfected with pTELJAK3 (pTRE2 vector); the other entry of the earlier key: ETV6 (P41212, Transcription factor ETV6)
- Sequence (P52333 with tags, fused parts or gaps): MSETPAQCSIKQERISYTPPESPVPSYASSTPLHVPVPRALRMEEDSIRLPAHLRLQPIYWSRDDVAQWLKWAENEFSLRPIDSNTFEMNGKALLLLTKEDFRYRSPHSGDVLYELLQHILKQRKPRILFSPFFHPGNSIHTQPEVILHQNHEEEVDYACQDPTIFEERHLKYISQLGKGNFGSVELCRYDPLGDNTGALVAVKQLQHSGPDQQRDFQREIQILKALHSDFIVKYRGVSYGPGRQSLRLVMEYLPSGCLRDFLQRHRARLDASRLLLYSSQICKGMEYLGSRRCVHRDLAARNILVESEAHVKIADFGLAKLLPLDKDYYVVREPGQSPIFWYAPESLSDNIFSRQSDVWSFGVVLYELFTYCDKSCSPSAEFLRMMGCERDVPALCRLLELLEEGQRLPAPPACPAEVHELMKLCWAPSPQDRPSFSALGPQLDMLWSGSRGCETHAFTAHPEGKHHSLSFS
- assay protocol: Cellular growth inhibition assay (MTT), Tel-Jak3 transformed BaF3 cell line
- Format: cell-based
- condition notes: 40 hr incubation, read-out: Jak3: growth inhibitory activity (>50%) in transformed cell line Tel-Jak3
measure name: inhibition at 50 µM

COc1cc(-c2cncc(NCc3cccnc3)n2)ccc1O: > 50%
COc1cc(-c2cncc(N[C@H]3CCCc4ccccc43)n2)ccc1O: < 50%
COc1cc(-c2cncc(NC(C)c3ccncc3)n2)ccc1O (stereo not drawn): > 50%
COc1cc(-c2cncc(NC(C)c3ccc(C(=O)NCCN(C)C)cc3)n2)ccc1O (stereo not drawn): > 50%
COc1cc(-c2cncc(NC(C)c3ccc(C(=O)NCC4CC4)cc3)n2)ccc1O (stereo not drawn): > 50%
COc1cc(-c2cncc(NC(C)c3ccc(-c4ccccc4)cc3)n2)ccc1O (stereo not drawn): > 50%

Recorded result, `COc1cc(-c2cncc(NCc3ccc(Cl)c(Cl)c3)n2)ccc1O` , inhibition at 50 µM: > 50%

Notebook: COc1cc(-c2cncc(NC(C)c3cccc(NC(=O)C4CCCN4)c3)n2)ccc1O (stereo not drawn) , inhibition at 50 µM read as > 50%

====

- study system: Tel-Jak2 (Homo sapiens, UniProt O60674)
- Construct: The regions encompassing the kinase domains of JAK2 (nucleotides 2994–3914); TEL (ETV6, human P41212) N-terminal part encoded by nucleotides 1-487 of TEL; expressed in transfected cells; host or cells: BaF3 (murine) bearing pTET-off, transfected with pTELJAK2 (pTRE2 vector); the other entry of the earlier key: ETV6 (P41212, Transcription factor ETV6)
- assay protocol: Cellular growth inhibition assay (MTT), Tel-Jak2 transformed BaF3 cell line
- Format: cell-based
- condition notes: 40 hr incubation, read-out: Jak2: growth inhibitory activity (>50%) in transformed cell line Tel-Jak2
measure name: inhibition at 50 µM

Here is how some molecules turned out for inhibition at 50 µM.
COc1cc(-c2cncc(NC(C)c3ccc(C(=O)O)cc3)n2)ccc1O (centres unmarked): < 50%
COc1cc(-c2cncc(NC(C)c3cccc(NC(=O)c4cccnc4)c3)n2)ccc1O (centres unmarked): > 50%
COc1cc(-c2cncc(NCc3ccc(Cl)c(Cl)c3)n2)ccc1O: > 50%

Measured inhibition at 50 µM of `COc1ccc([C@H](C)Nc2cncc(-c3ccc(O)c(OC)c3)n2)cc1` : > 50%

The molecule `CC[C@H](Nc1cncc(-c2ccc(O)c(OC)c2)n1)c1ccccc1` showed inhibition at 50 µM equal to > 50%
